Test: Example 6: multiple-dose study in iron-overloaded human subjects (PK)
Format: in vivo
Details: both sexes, human, plasma; 16 mg/kg/day, 7 days oral; N = 4; read-out: AUC(0 - 24)
Text: Example 6 was a multiple-dose, escalating study in iron-overloaded subjects conducted at 5 centers in the US, Australia, and Thailand. Men and women at least 18 years of age qualified to participate if they were able to voluntarily give consent and had transfusional overload requiring treatment with an iron chelator and were willing to discontinue their chelation for a period of at least 5 days prior to screening and during the study for a total of up to 35 days. […]
reported_metric: AUC(0-t)
Dear colleague, please send the value followed by its unit.

-- ask Which AUC(0-t) reading was recorded for the molecule `COCCOCCOCCOc1cccc(C2=N[C@@](C)(C(=O)O)CS2)c1O` ?
-- reply 92300 ng·h/mL

----------
Assay: Example 5: single-dose study in iron-overloaded human subjects (PK)
Assay type: in vivo
Conditions: human, plasma; single oral dose 32 mg/kg (2214.4 mg), subject 4; read-out: tmax
Protocol: Example 5 was a single-dose, escalating study in iron-overloaded subjects. […] The objectives of this study were to assess the safety, tolerability, and pharmacokinetics of ascending single doses of Compound 1. Additionally, dose proportionality and pharmacodynamics of Compound 1 were assessed. Four doses of Compound 1 (6, 10, 16, and 32 mg/kg), in capsule form, were evaluated in this study. […]
reported_metric: Tmax (h)
Give the value in h but do not write h after it.

-- ask Which Tmax reading was recorded for the compound `COCCOCCOCCOc1cccc(C2=N[C@@](C)(C(=O)O)CS2)c1O` ?
-- reply 1

----------
Experiment: Example 6: multiple-dose study in iron-overloaded human subjects (PK)
Format: in vivo
Details: both sexes, human, plasma; 40 mg/kg/day, 7 days oral; N = 4; read-out: Vz/F
Description: Example 6 was a multiple-dose, escalating study in iron-overloaded subjects conducted at 5 centers in the US, Australia, and Thailand. Men and women at least 18 years of age qualified to participate if they were able to voluntarily give consent and had transfusional overload requiring treatment with an iron chelator and were willing to discontinue their chelation for a period of at least 5 days prior to screening and during the study for a total of up to 35 days. […]
reported_metric: Vd/F
Dear colleague, please send the value followed by its unit.

-- ask Which Vd/F reading was recorded for the compound COCCOCCOCCOc1cccc(C2=N[C@@](C)(C(=O)O)CS2)c1O [Compound 1] ?
-- reply 249 L

----------
Assay: Example 7: high single doses in healthy human subjects (PK)
Format: in vivo
Conditions: both sexes, human, plasma; single oral dose 40 mg/kg, fasted
reported_metric: AUC(0-inf) (µg·h/mL)
Give the value in µg·h/mL but do not write µg·h/mL after it.

-- ask Which AUC(0-inf) reading was recorded for the molecule `COCCOCCOCCOc1cccc(C2=N[C@@](C)(C(=O)O)CS2)c1O` ?
-- reply 195

----------
Assay: Example 6: multiple-dose study in iron-overloaded human subjects (PK)
Format: in vivo
Settings: both sexes, human, plasma; 3 mg/kg/day, 7 days oral; median; read-out: tmax
reported_metric: Tmax (h)
Give the value in h but do not write h after it.

-- ask Which Tmax reading was recorded for the molecule `COCCOCCOCCOc1cccc(C2=N[C@@](C)(C(=O)O)CS2)c1O` ?
-- reply 1.31

----------
Assay: Example 8: single-dose study in healthy human subjects 3-16 mg/kg (PK)
Format: in vivo
Details: male, human, plasma, po, 10 mg/kg, single oral dose 10 mg/kg; mean; read-out: t1/2 (converted)
reported_metric: half-life (h)
Give the value in h but do not write h after it.

-- ask Which half-life reading was recorded for the compound `COCCOCCOCCOc1cccc(C2=N[C@@](C)(C(=O)O)CS2)c1O` ?
-- reply 16.1

----------
Assay: Example 8: single-dose study in healthy human subjects 3-16 mg/kg (PK)
Type: in vivo
Conditions: male, human, plasma, po, 6 mg/kg, single oral dose 6 mg/kg; mean; read-out: t1/2 (converted)
reported_metric: half-life (min)
Give the value in min but do not write min after it.

-- ask Which half-life reading was recorded for the compound `COCCOCCOCCOc1cccc(C2=N[C@@](C)(C(=O)O)CS2)c1O` ?
-- reply 926

----------
Assay: Aqueous solubility of salts
Format: physicochemical
Conditions: tromethamine salt; read-out: aqueous solubility
Description: Typically, oral formulations described herein facilitate solubilizing an active ingredient (e.g., a desazadesferrithiocin analog, salt or polymorph) at a desired amount or rate suitable for the treatment of metal overload. […] Aqueous solubility is, in and of itself, a useful quantitative measure, but it has additional utility as a correlate and predictor, with some limitations which will be clear to those of skill in the art, of oral bioavailability. […]
reported_metric: solubility

-- ask Which solubility reading was recorded for the molecule COCCOCCOCCOc1ccc(C2=N[C@@](C)(C(=O)O)CS2)c(O)c1 [Compound 2] ?
-- reply > 124 mg/mL

----------
Test: Example 6: multiple-dose study in iron-overloaded human subjects (PK)
Assay type: in vivo
Conditions: both sexes, human, plasma; 16 mg/kg/day, 7 days oral; N = 4; read-out: Vz/F
reported_metric: Vd/F (L)
Give the value in L but do not write L after it.

-- ask Which Vd/F reading was recorded for the molecule `COCCOCCOCCOc1cccc(C2=N[C@@](C)(C(=O)O)CS2)c1O` ?
-- reply 339

----------
Assay: Example 4: seven-day dosing in iron-overloaded human subjects (PK, tolerability)
Assay type: in vivo
Settings: human, plasma; 32 mg/kg daily 7 days oral; read-out: Vz/F
reported_metric: Vd/F (L)
Give the value in L but do not write L after it.

-- ask Which Vd/F reading was recorded for the compound `COCCOCCOCCOc1cccc(C2=N[C@@](C)(C(=O)O)CS2)c1O` ?
-- reply 214

----------
Assay: Example 4: seven-day dosing in iron-overloaded human subjects (PK, tolerability)
Assay type: in vivo
Conditions: human, plasma, oral; 40 mg/kg, 5th cohort of four patients; read-out: Mean half life (t½) (converted)
reported_metric: half-life
Dear colleague, please send the value followed by its unit.

-- ask Which half-life reading was recorded for the compound COCCOCCOCCOc1cccc(C2=N[C@@](C)(C(=O)O)CS2)c1O [Compound 1] ?
-- reply 26.6 h

----------
Test: Example 5: single-dose study in iron-overloaded human subjects (PK)
Format: in vivo
Details: human, plasma; single oral dose 32 mg/kg, subject 4
reported_metric: AUC(0-t) (µg·h/mL)
Give the value in µg·h/mL but do not write µg·h/mL after it.

-- ask Which AUC(0-t) reading was recorded for the compound COCCOCCOCCOc1cccc(C2=N[C@@](C)(C(=O)O)CS2)c1O [Compound 1] ?
-- reply 157

----------
Test: Example 8: single-dose study in healthy human subjects 3-16 mg/kg (PK)
Type: in vivo
Settings: male, human, plasma, oral, 11 of 12 subjects, 3-16 mg/kg; standard deviation 10.1; read-out: mean t1/2 (converted)
reported_metric: half-life (h)
Give the value in h but do not write h after it.

-- ask Which half-life reading was recorded for the molecule `COCCOCCOCCOc1cccc(C2=N[C@@](C)(C(=O)O)CS2)c1O` ?
-- reply 12.8

----------
Assay: Example 7: high single doses in healthy human subjects (PK)
Type: in vivo
Details: both sexes, human, plasma; single oral dose 60 mg/kg, fasted
Protocol: Subjects were male and female healthy human volunteers aged between 18 and 50 years, free from clinically significant illness or disease as determined by their medical/surgical history, physical examination etc., and having a serum ferritin>20 ng/mL. […] PK plasma and PK urine samples were assayed by a validated LC/MS/MS method, specific for the determination of Compound 1. Pharmacokinetic parameters for Compound 1 will be calculated using non-compartmental analysis. […]
reported_metric: Cmax (µg/mL)
Give the value in µg/mL but do not write µg/mL after it.

-- ask Which Cmax reading was recorded for the molecule COCCOCCOCCOc1cccc(C2=N[C@@](C)(C(=O)O)CS2)c1O [Compound 1] ?
-- reply 104

----------
Test: Example 6: multiple-dose study in iron-overloaded human subjects (PK)
Format: in vivo
Settings: both sexes, human, plasma; 3 mg/kg/day, 7 days oral; N = 4; read-out: AUC(0 - 24)
reported_metric: AUC(0-t) (ng·h/mL)
Give the value in ng·h/mL but do not write ng·h/mL after it.

-- ask Which AUC(0-t) reading was recorded for the compound `COCCOCCOCCOc1cccc(C2=N[C@@](C)(C(=O)O)CS2)c1O` ?
-- reply 19500

----------
Assay: Example 4: seven-day dosing in iron-overloaded human subjects (PK, tolerability)
Format: in vivo
Details: human, plasma; 8 mg/kg daily 7 days oral; read-out: AUC(0-24)
reported_metric: AUC(0-t) (ng·h/mL)
Give the value in ng·h/mL but do not write ng·h/mL after it.

-- ask Which AUC(0-t) reading was recorded for the molecule `COCCOCCOCCOc1cccc(C2=N[C@@](C)(C(=O)O)CS2)c1O` ?
-- reply 44900

----------
Test: Example 6: multiple-dose study in iron-overloaded human subjects (PK)
Assay type: in vivo
Details: both sexes, human, plasma; 40 mg/kg/day, 7 days oral; N = 4
reported_metric: CL renal (mL/min)
Give the value in mL/min but do not write mL/min after it.

-- ask Which CL renal reading was recorded for the molecule `COCCOCCOCCOc1cccc(C2=N[C@@](C)(C(=O)O)CS2)c1O` ?
-- reply 107

Cited source: patent US8993606B2
